Experiment Notes: viability loss with induced miR-34 in A549 – imaging, A549 dox-inducible miR-34, nuclei and caspase counts, primary screen (AID 1347080); note: test concentration not given here
Setup Conditions: A549 miR-34 inducible, Hoechst nuclei count, 48 h; measured here: relative caspase fold change +Dox/-Dox
Measured Endpoint: fold change
Give the figure only, with no unit attached.

Use these answered entries as a reference point.
- Compound: "CCCCC(C)(C)[C@H](O)/C=C/[C@H]1[C@H](O)CC(=O)[C@@H]1CC(=O)CCCCC(=O)O"
  fold change: 1.32
- Compound: "O=C(O)CCC1CCC(c2cc(F)ccc2F)(S(=O)(=O)c2ccc(Cl)cc2)CC1 (configuration not stated)"
  fold change: 0.588
- Compound: "CC(C)c1cnn2c(NCc3ccccc3)cc(NCCCCCCN)nc12"
  fold change: 0.679
- Compound: "NC(=O)N/N=C/c1ccc(Oc2ccc(F)cc2)cc1"
  fold change: 2.22
- Compound: "CC[C@]1(O)C[C@H]2CN(CCc3c([nH]c4ccccc34)[C@@](C(=O)OC)(c3cc4c(cc3OC)N(C)[C@H]3[C@@](O)(C(=O)OC)[C@H](OC(C)=O)[C@]5(CC)C=CCN6CC[C@]43[C@@H]65)C2)C1"
  fold change: 0.382
- Compound: "COc1ccc(-n2c(C)c([N+](=O)[O-])c3ccc(O)cc32)cc1"
  fold change: 0.334

Pending compound:
The recorded fold change for CCCCCCCCCCCCCCCCOC[C@H](COP(=O)([O-])OCC[N+](C)(C)C)SC(=O)CCCCCC is 1.56

Source listed as PubChem BioAssay.
